Some molecules, each annotated with its measured inhibition.
biological target: Misshapen-like kinase 1 (Homo sapiens) (UniProt Q8N4C8); settings: at 1 µM
Sequence (Q8N4C8 whole entry, looked up): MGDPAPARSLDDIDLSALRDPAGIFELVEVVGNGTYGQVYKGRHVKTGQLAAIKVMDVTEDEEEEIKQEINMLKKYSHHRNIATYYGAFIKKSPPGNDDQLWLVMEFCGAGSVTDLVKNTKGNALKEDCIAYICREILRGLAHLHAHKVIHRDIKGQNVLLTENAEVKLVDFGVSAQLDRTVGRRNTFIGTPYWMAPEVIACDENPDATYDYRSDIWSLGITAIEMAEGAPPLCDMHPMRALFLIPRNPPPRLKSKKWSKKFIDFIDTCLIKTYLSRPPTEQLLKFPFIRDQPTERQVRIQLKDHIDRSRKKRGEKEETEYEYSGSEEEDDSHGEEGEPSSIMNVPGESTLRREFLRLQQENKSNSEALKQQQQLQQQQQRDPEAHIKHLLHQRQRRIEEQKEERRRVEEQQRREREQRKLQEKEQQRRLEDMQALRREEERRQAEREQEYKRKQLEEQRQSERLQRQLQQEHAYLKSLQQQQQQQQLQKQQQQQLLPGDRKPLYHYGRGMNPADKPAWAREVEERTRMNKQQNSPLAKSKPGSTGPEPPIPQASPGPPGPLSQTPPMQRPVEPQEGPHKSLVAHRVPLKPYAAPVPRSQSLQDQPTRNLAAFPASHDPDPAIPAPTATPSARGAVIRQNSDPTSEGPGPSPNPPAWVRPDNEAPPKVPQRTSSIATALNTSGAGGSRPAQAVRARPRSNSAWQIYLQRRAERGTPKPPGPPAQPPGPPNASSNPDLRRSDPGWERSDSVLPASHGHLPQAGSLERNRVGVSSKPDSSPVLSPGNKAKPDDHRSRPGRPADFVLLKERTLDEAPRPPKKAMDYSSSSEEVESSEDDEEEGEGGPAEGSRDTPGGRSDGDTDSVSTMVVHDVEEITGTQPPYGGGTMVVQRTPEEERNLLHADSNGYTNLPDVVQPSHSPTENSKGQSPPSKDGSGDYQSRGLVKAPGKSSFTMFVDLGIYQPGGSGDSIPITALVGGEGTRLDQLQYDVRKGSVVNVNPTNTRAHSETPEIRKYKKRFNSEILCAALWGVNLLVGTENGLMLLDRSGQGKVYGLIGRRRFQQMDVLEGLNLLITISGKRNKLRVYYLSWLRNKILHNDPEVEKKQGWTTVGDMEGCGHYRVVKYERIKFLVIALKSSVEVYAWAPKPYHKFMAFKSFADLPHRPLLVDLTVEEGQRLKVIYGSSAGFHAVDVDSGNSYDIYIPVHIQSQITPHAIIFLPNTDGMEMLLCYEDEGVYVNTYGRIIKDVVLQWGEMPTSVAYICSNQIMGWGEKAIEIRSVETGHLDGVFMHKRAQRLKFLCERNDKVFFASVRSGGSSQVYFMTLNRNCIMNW
Description: GSK_PKIS: MINK mean inhibition at 1 uM [Nanosyn]
READOUT_NAME: inhibition (%)

>>> numeric_result("Cc1cc(O)cc(C)c1/C=C/c1cncc(C(N)=O)c1")
7.34
>>> numeric_result("CNC(=O)c1sc(-n2cnc3cc(OC)c(OC)cc32)cc1OCc1ccccc1C(F)(F)F")
12.2
>>> numeric_result("CCOc1ccc2c(-c3ccnc(Nc4cc(OC)cc(C(F)(F)F)c4)n3)cnn2n1")
6.36
>>> numeric_result("CCCNc1cccc(-n2ncc3c(N/N=C/c4ccncc4)ncnc32)c1")
35.9
>>> numeric_result("CS(=O)(=O)Nc1ccc(-c2cc(-c3ccccc3)cc(C(N)=O)c2N)cc1")
10.4
>>> numeric_result("c1ccc(-c2n[nH]cc2-c2ccnc(-c3ccc(OCCn4ccnc4)cc3)c2)nc1")
79
>>> numeric_result("Cc1cc(O)cc(C)c1/C=C/c1cncc(C(=O)OC(C)(C)C)c1")
9.55
>>> numeric_result("COC(=O)Nc1nc2ccc(Oc3ccc(NC(=O)Nc4cc(C(F)(F)F)ccc4F)cc3)cc2s1")
6.19
>>> numeric_result("O=C(O[C@H]1CN[C@H](C#Cc2cc3ncnc(Nc4ccc5c(cnn5Cc5ccccc5)c4)c3s2)C1)N1CCOCC1")
1.62
>>> numeric_result("Cn1c(-c2nonc2N)nc2cnccc21")
16.6
>>> numeric_result("COc1c(C(N)=O)cc(-c2ccc(Cl)cc2)cc1-c1ccc(S(N)(=O)=O)cc1")
7.24
